pKi: −log10 of the molar value.
// cross-source set; read-out = pKi; system = Adenosine receptor A2a (Homo sapiens)
Sequence (P29274 whole entry): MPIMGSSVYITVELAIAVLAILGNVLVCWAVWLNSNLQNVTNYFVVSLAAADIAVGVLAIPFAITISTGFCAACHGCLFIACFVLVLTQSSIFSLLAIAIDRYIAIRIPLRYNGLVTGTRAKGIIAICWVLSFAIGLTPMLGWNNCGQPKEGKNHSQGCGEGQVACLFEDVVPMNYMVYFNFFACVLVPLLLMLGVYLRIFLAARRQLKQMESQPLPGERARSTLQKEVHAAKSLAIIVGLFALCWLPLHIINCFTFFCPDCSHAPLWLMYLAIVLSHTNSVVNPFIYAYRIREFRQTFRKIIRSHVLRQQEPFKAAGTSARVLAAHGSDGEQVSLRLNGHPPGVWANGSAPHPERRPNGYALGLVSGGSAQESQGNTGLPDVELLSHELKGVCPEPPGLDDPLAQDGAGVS
Measured Metric: pKi

>  <Compound Structure String>
Cn1cc2c(nc(NC(=O)Nc3cc4ccccc4o3)n3nc(-c4ccco4)nc23)n1

>  <Subject Of Test>
Adenosine receptor A2a (Homo sapiens)

>  <Test Value>
7.22

$$$$
>  <Compound Structure String>
Nc1nc(Cl)c2cn(CCc3ccccc3)nc2n1

>  <Subject Of Test>
Adenosine receptor A2a (Homo sapiens)

>  <Test Value>
5.43

$$$$
>  <Compound Structure String>
Nc1nc2c(cnn2CCc2ccc3nc(CN4CCOCC4)ccc3c2)c2nc(-c3ccco3)nn12

>  <Subject Of Test>
Adenosine receptor A2a (Homo sapiens)

>  <Test Value>
8.64

$$$$
>  <Compound Structure String>
CCCOc1ccc(/C=C/c2cc3c(c(=O)n(C)c(=O)n3C)n2C)cc1

>  <Subject Of Test>
Adenosine receptor A2a (Homo sapiens)

>  <Test Value>
6.51

$$$$
>  <Compound Structure String>
CC(=O)Nc1cc(-c2cccc(CO[C@@H]3CCN(C)C3)c2)nc(-n2nc(C)cc2C)n1

>  <Subject Of Test>
Adenosine receptor A2a (Homo sapiens)

>  <Test Value>
7.17

$$$$
>  <Compound Structure String>
O=c1c2ncn3nc(-c4ccccc4)cc3c2c(-c2ccncc2)nn1Cc1ccccc1

>  <Subject Of Test>
Adenosine receptor A2a (Homo sapiens)

>  <Test Value>
7.17

$$$$
>  <Compound Structure String>
CCN(C(C)=O)c1ccc(OC)c2nc(NC(=O)[C@@H]3CCN(C(=O)c4cccc(C(F)(F)F)c4)C3)sc12

>  <Subject Of Test>
Adenosine receptor A2a (Homo sapiens)

>  <Test Value>
5.69

$$$$
